Where these numbers come from: patent US20220267258A1

system: P. falciparum A6; test: SYBR Green growth inhibition assay, P. falciparum A6; format: cell-based, Plasmodium falciparum; conditions: Plasmodium falciparum, 72 h, read-out: IC50 A6
reportedEndpoint: IC50

Examples with answers:
compound	reportedEndpoint	reportedValue
N=C(N/N=C/c1ccccc1Cl)N/N=C/c1ccccc1Cl [Compound 5]	IC50	348 nM
N=C(N/N=C/c1cccc(Br)c1)N/N=C/c1cccc(Br)c1 [Compound 8]	IC50	502 nM
N#Cc1ccccc1/C=N/NC(=N)N/N=C/c1ccccc1C#N [Compound 20]	IC50	969 nM
CC#COc1ccc(/C=N/NC(=N)N/N=C/c2ccc(OC#CC)cc2)cc1 [Compound 32]	IC50	153 nM

Below: the item to evaluate.
Task: Item under review: N=C(N/N=C/c1ccc(C(F)(F)F)cc1)N/N=C/c1ccc(C(F)(F)F)cc1 [Compound 12] . Reported IC50?
Result: 567 nM

* * *

Experiment: HepG2 cytotoxicity assay (resazurin)
Format: cell-based, human
Conditions: human, HepG2 cells; HepG2, 24 hr drug, 24 hr recovery
Description: In this assay, HepG2 cells were incubated with test compounds for 24 hours, followed by a 24-hour recovery period and subsequent staining to evaluate for cytotoxic effects with resazurin. […] Compounds were prepared as 10 mM stock solutions in DMSO. […] Fluorescence was measured at 560 nm excitation and 590 nm emission bands using a Spectramax iD3 plate reader. Fluorescence readings were normalized with respect to the untreated control wells and plotted against the logarithm of drug concentration.
reportedEndpoint: IC50 at 24 h

Below, 8 compounds whose answers are already recorded.
compound	reportedValue
N=C(N/N=C/c1cccc(Br)c1)N/N=C/c1cccc(Br)c1 [Compound 8]	62 µM
N=C(N/N=C/c1ccccc1)N/N=C/c1ccccc1 [Compound 24]	> 200 µM
Cc1ccc(/C=N/NC(=N)N/N=C/c2ccc(C)cc2)cc1 [Compound 10]	43 µM
N#Cc1cccc(/C=N/NC(=N)N/N=C/c2cccc(C#N)c2)c1 [Compound 21]	7 µM
N=C(N/N=C/c1ccc(N2CCOCC2)cc1)N/N=C/c1ccc(N2CCOCC2)cc1 [Compound 33]	> 200 µM
COc1ccc(/C=N/NC(=N)N/N=C/c2ccc(OC)cc2)cc1 [Compound 11]	> 200 µM
N#Cc1ccccc1/C=N/NC(=N)N/N=C/c1ccccc1C#N [Compound 20]	31 µM
N=C(N/N=C/c1ccccc1Cl)N/N=C/c1ccccc1Cl [Compound 5]	> 200 µM

Consider the additional compound presented here.
Task: Please give the measured IC50 at 24 h for this compound: N#Cc1cc(/C=N/NC(=N)N/N=C/c2ccc(F)c(C#N)c2)ccc1F [Compound 1]
Result: 8 µM

* * *

test system: P. falciparum A6; test: SYBR Green growth inhibition assay, P. falciparum A6; format: cell-based, Plasmodium falciparum; conditions: Plasmodium falciparum, 72 h, read-out: IC50 A6
reportedEndpoint: pIC50
Schema: pIC50 number; meaning minus log10 of the concentration expressed in molar units.

Consider the worked cases shown below.
compound	pIC50
N=C(N/N=C/c1ccc(-c2ccccc2)cc1)N/N=C/c1ccc(-c2ccccc2)cc1 [Compound 26]	7.48
N#Cc1cc(/C=N/NC(=N)N/N=C/c2ccc(F)c(C#N)c2)ccc1F [Compound 1]	7.85

Task: Reported pIC50, compound N=C(N/N=C/c1cccc(-n2cnnn2)c1)N/N=C/c1cccc(-n2cnnn2)c1 [Compound 34] : ____
Result: 5.32
